- assayExplanation: Neutral red dye uptake cytotoxicity assay
- Format: cell-based
- details: human, Experiment 3
endpoint: CC50 at 72 h

Can you share its CC50 at 72 h? I mean this compound: O=C(NCc1cccs1)c1nn2c(c1Cl)N[C@H](c1ccco1)C[C@@H]2C(F)(F)F (single isomer, unassigned)
> 20 µM

* * *

- System: HCV genotype 1b subgenomic replicon (Con1 strain)
- assayExplanation: microbe, parasite or virus in culture
- Assay type: cell-based
- details: Hepatitis C virus; 24 hours post-treatment; Renilla luciferase; Huh7.5 cells
endpoint: pEC50
Remember, pEC50 is on a log scale: it is -log10 of the molar concentration.

Could you share which pEC50 value was measured for O=C(NCc1cccs1)c1nn2c(c1Cl)N[C@H](c1ccco1)C[C@@H]2C(F)(F)F (single isomer, unassigned) ?
5.74

* * *

- System: subgenomic genotype 2a replicon (J6 and JFH1 strains)
- assayExplanation: Genotype 2a hRluc replicon assay in Huh7 cells, Renilla luciferase readout
- Format: cell-based
- details: Hepatitis C virus, Huh-7, 48 h
endpoint: EC50

Requested field: EC50. Item: O=C(NCc1cccs1)c1nn2c(c1Cl)N[C@H](c1ccco1)C[C@@H]2C(F)(F)F (single isomer, unassigned) [Compound 80978]
> 25 µM

* * *

- Tested on: genotype 2a replicon encoding genotype 1b NS4B amino acids 53-254
- assayExplanation: Chimeric genotype 1b/2a replicon (NS4B aa 53-254 from 1b) in Huh7.5 cells
- Type: cell-based, hepatitis C virus
- details: Hepatitis C virus, Huh7.5
endpoint: EC50

# value lookup — system genotype 2a replicon encoding genotype 1b NS4B amino acids 53-254, readout EC50, item O=C(NCc1cccs1)c1nn2c(c1Cl)N[C@H](c1ccco1)C[C@@H]2C(F)(F)F (single isomer, unassigned) [Compound 80978]
< 2500 nM

* * *

- System: Huh7.5 cells
- assayExplanation: ATP viability assay (CellTiter-Glo) in replicon-harboring Huh7.5 cells
- Assay type: cell-based, human
- details: 24 hours post-treatment; Huh7.5 cells harboring transient genotype 1b replicon
endpoint: CC50

// query CC50 value for entry O=C(NCc1cccs1)c1nn2c(c1Cl)NC(c1ccco1)CC2C(F)(F)F (stereo not shown)
> 100 µM
